// provenance: patent US20100168112A1

assay: Pharmacokinetic evaluation following intravenous and oral administration in rats; format: in vivo; conditions: male, Sprague-Dawley, rat, plasma, intravenous, 1 mg/kg; read-out: T1/2 elimination half life (converted)
Readout label: half-life (min)

Some molecules with known half-life results, for comparison:
CS(=O)(=O)c1ncccc1/C=[N+](\[O-])Cc1ccccc1 [Compound 75] : 34.2
CCS(=O)(=O)c1ccccc1/C=[N+](\[O-])C(C)(C)C [Compound 68] : 55.8

a: CC(C)(C)/[N+]([O-])=C/c1ccc(S(=O)(=O)Nc2cccnc2)cc1 [Compound 26]
b: CC(C)S(=O)(=O)c1ccc(/C=[N+](\[O-])C(C)(C)C)c(S(=O)(=O)C(C)C)c1 [Compound 65]
c: CC(C)S(=O)(=O)c1ccc(/C=[N+](\[O-])C(C)(C)C)cc1 [Compound 70]
d: CC(C)(C)/[N+]([O-])=C/c1ccc(S(=O)(=O)N2CCOCC2)cc1 [Compound 23]
e: CC(C)(C)/[N+]([O-])=C/c1ccc(C(F)(F)F)cc1S(C)(=O)=O [Compound 72]
# ascending order, key=half-life The labels, placed in the requested order, form the answer. b, c, d, e, a
(b: 21 min, c: 37.2 min, d: 94.8 min, e: 169 min, a: 262 min)

====

test: Pharmacokinetic evaluation following intravenous and oral administration in rats; format: in vivo; settings: male, Sprague-Dawley, 5 mg/kg; rat plasma; oral gavage, 2 mg/mL at 2.5 mL/kg
Readout label: Cmax (µg/mL)

CC(C)S(=O)(=O)c1ccccc1/C=[N+](\[O-])C(C)(C)C : 1.84

1: CC(C)(C)/[N+]([O-])=C/c1ccc(C(F)(F)F)cc1S(C)(=O)=O
2: CC(C)(C)/[N+]([O-])=C/c1ccc(S(=O)(=O)N2CCCC2)cc1
3: CC(C)(C)/[N+]([O-])=C/c1ccc(S(C)(=O)=O)nc1
Arrange by Cmax, high to low. Return the labels ranked in the requested order, please. 3, 1, 2

====

experiment: Microsomal stability in human liver microsomes; type: in vitro ADME; conditions: NADPH, 37° C.
Readout label: % of Nitrone Remaining at 30 min (Human) (%)

CNS(=O)(=O)c1ccccc1/C=[N+](\[O-])C(C)(C)C [Compound 47] : 100
CCN(CC)S(=O)(=O)c1ccc(/C=[N+](\[O-])C(C)(C)C)cc1 [Compound 50] : 86
CC(C)(C)NS(=O)(=O)c1ccc(/C=[N+](\[O-])C2CCCCC2)cc1 [Compound 60] : 100
CCN(CC)S(=O)(=O)c1ccc(/C=[N+](\[O-])Cc2ccccc2)cc1 [Compound 53] : 65
CC(C)(C)NS(=O)(=O)c1ccccc1/C=[N+](\[O-])C(C)(C)C [Compound 48] : 100
CCN(CC)S(=O)(=O)c1ccc(/C=[N+](\[O-])C2CCCCC2)cc1 [Compound 52] : 64
CC(C)/[N+]([O-])=C/c1ccc(S(=O)(=O)N(C)c2ccccc2)cc1 [Compound 55] : 82
CS(=O)(=O)c1ncccc1/C=[N+](\[O-])C1CCCCC1 [Compound 76] : 90.5

====

Assay: Pharmacokinetic evaluation following intravenous and oral administration in rats
Type: in vivo
Details: male, Sprague-Dawley, plasma, 1 mg/kg; rat; intravenous administration, 1 mg/mL at 1.0 mL/kg; read-out: CI (clearance) (converted)
Procedure: Male Sprague-Dawley rats were given at least 24 hours acclimation before experiment initiation. During acclimation period, all animals received food and water ad libitum. […] For IV dosing, blood samples were collected (using a pre-heparinized syringe) via the carotid artery or jugular vein catheter at t=2, 5, 15, 30, 60, 120, 180, 360, and 480 minutes post dosing. […] The resulting plasma samples were then analyzed by mass spectroscopy using standard methods. […]
Readout label: clearance (mL/min/kg)

CC(C)(C)/[N+]([O-])=C/c1ccccc1S(=O)(=O)N1CCCCC1 : 36.2

A: CC(C)(C)/[N+]([O-])=C/c1ccc(C(F)(F)F)cc1S(C)(=O)=O
B: CC(C)(C)/[N+]([O-])=C/c1ccc(S(C)(=O)=O)cc1S(C)(=O)=O
Select one. Lower clearance: A or B When you have decided, please share the label of that item. B
(B: 3.17 mL/min/kg, A: 11 mL/min/kg)

I: CC(C)(C)/[N+]([O-])=C/c1ccc(S(C)(=O)=O)cc1
II: CC(C)(C)/[N+]([O-])=C/c1ccc(C(=O)O)cc1
Return label of the item with the larger clearance. Candidates: I , II . Response format: the label of the selected entry. II
